Field: soluble fraction (log2). Provide a value for each of the sequences that follow.
- Procedure text: soluble fraction after stress (log2 fold change); higher = more stays soluble; pooled small domains, quantitative proteomics
- Experimental context: stress: 50 degC
No unit in the answer, only the number.

Prompt: # query: soluble fraction (log2) of entry `HMEYEETMSQIKHNLNLLPRQQRVIIEMAKFDELTPAEIAKQLGISVQTVRNQLSTGLKKLRQLL`
Response: -0.0252

Prompt: # query: soluble fraction (log2) of entry `HMQIIEVPYSEFLKKLESGQISEVSRDSYQIVFTDRSQPPIIYKTGLMEDPGLVDKMQEAGVTFTSP`
Response: 0.12

Prompt: # query: soluble fraction (log2) of entry `HMEFTVFMNSAGGSKLQVVKTVKELTGLGLKEAKAIVDGSPGPVKEGLSKADAEAMLAKLQEAGADVEL`
Response: -0.0948

Prompt: # query: soluble fraction (log2) of entry `HMLKEGIKEKINQLQVYADKNDNIIWYDRVVDILSDKDDSVTDEMIEAAIRTLEEAGISVERKQ`
Response: 0.0259

Prompt: # query: soluble fraction (log2) of entry `HMNSSTVDLAKEFLIDLLSSVEKMPASEVQEEAKNAGYSVASIRRAKDNLNIKPFKDGSAWYWKLPSIFK`
Response: -0.114

Prompt: # query: soluble fraction (log2) of entry `HMVETDQESSLIQAIYKYFEITGDNTFFDEKVGEKTVADRMEWAMDYLIQNRFSEEYGLIWGA`
Response: -0.2

Prompt: # query: soluble fraction (log2) of entry `HMASANMPDVLGLDAETAKQVLAAKGFTKVEIYPMESSEPANRVVRQSEDRDTMVALTKEILLGVSNGS`
Response: 0.186

Prompt: # query: soluble fraction (log2) of entry `HMEGIWAVFYDGKPINLKSSSLVANYPGPKYKKVSFSNPGHAENLAKKLNAQHNTDKFGVYLLKSGDKFS`
Response: -0.00158

* * *

- Procedure text: soluble fraction after stress (log2 fold change); higher = more stays soluble; pooled small domains, quantitative proteomics
- Experimental context: stress: 50 degC
Category key, based on recorded soluble fraction (log2): bucket 1 = under -0.7, bucket 2 = from -0.7 up to -0.1, bucket 3 = -0.1 and over

Prompt: Which category fits this record: `HMELLTNPLTGREVEVLTLMALGQTNHEIARQLYLATGTVKAHTSSIYRKLDVANRTEAVARARQLGIL`
Response: bucket 1

Prompt: Which category fits this record: `HMDWREMTAWMAELLKRRTGDDVETWNARVRESGAHDEASLRAWLTEQGVTGYAQTLLVMERFGYPDFF`
Response: bucket 1

Prompt: Which category fits this record: `HMNHYIGVDRAKEIALNHANLSETDVVFTKEKLENDDGGAEYEIEFHSGRTEYDYTIDAASGNIIEYDVDY`
Response: bucket 3

Prompt: Which category fits this record: `HMFDTVTIGRKIAELRKAHNMTQFELADALGISFQAVSNWERGASMPDISKLPELAEIFGVTIDEVLGK`
Response: bucket 1

Prompt: Which category fits this record: `HMNTSITVPSLKGLSQEAATLKMERLGLHVEVSDTGFVRSLAFGTVLQQSIAPGEKVKPGRLVYITINSD`
Response: bucket 1

Prompt: Which category fits this record: `HMNLYHALDQQGEVYLTIPPRQSGRGKVTLMIDGRVREMDAMTDGDALKTGSKVRVTEILDENALKVEAM`
Response: bucket 3

Prompt: Which category fits this record: `HMNTDVEKQKVFTALFDDYFRRNSMTSLEKQLFLTALKTNFQNAQKTVAKDHPYYATYSLIISAIENYR`
Response: bucket 3

Prompt: Which category fits this record: `HMTNQEFNAAFKPFLDYFPTTEMTKEKINIYYLALSDLSKEQLGSAFISMVKNRVYKNFPQVAEIRQYATN`
Response: bucket 3

Prompt: Which category fits this record: `HMTVKKLTINEDNSGRRIDNYLLSIFNSLPRSKIYNIIRKGEVRVNSSRIKPNYRLEQGDLVRIPPNLEFT`
Response: bucket 3

Prompt: Which category fits this record: `HMSIEHVPGYTTLSKREQEIVHALLTRKTPEELADDLSISINTLNKHISHIYHKLGIRGRMQLFDYA`
Response: bucket 2

Prompt: Which category fits this record: `HMDTVIAEVTASILNLRRSAGTSSDIIGKLNKGEKVSIIGGSGNWKNVRTSGGITGWVYHEYLSTY`
Response: bucket 2

Prompt: Which category fits this record: `HMEAYDTMEDRTTLAPGFAKLDKRERYILHLRFFEGLTQSQIAERVGISQMHVSRLIRRSLEKLREEIGD`
Response: bucket 2

Prompt: Which category fits this record: `HMKYWTISDLYSKLEEDQVELGAFSEDSNKVTVLDRQGYEHVIKILSSDVPALTELFRKKKVRFAVAG`
Response: bucket 2

Prompt: Which category fits this record: `HMRIHKQLGDRIRNLRLSSGMNQEELAFKSGISAAHLGQIERGLKSPTISTIQKIAKALNVTLPILF`
Response: bucket 2

Prompt: Which category fits this record: `HMNRETAISIYRILHILEEPYKEVFTLRTLGDLSYREIADIFGKQENWARVTYHRAKLKIREALVS`
Response: bucket 1
